Test system: T47D
TEST_SUMMARY: NCI tumour cell line growth inhibition, 48 h
Calls of active or inactive are those of the source. No stated cut-off is given here; in the data, active = GI50 up to about 1.1 µM and inactive = higher.
Your response should consist of one outcome taken from yes (1) (active), no (0) (inactive)

# fetch the recorded call for CCOC(=O)C1=C(N)N2C(=N[C@H]3CCCC[C@@H]32)N=C1 here
no (0)

What is the recorded call for this compound in the test? C/C(=N\NS(=O)(=O)c1ccc(C)cc1)c1ccccn1
no (0)

What classification did CC(C)(C)OCC1NC(=O)[C@@H]2Cc3c([nH]c4ccccc34)C(c3ccccc3)N2C1=O (stereo partly specified) end up with in this test?
no (0)

Just curious, what result did Cc1cc(C)cc(Nc2nnc3n2S(=O)(=O)c2cc(C#N)c(Cl)cc2S3)c1 get here?
no (0)

What did this assay record as the result for Cc1cc2c(cc1C)C(=O)/C(=N/Nc1ccc(F)cc1)CCO2 ?
no (0)

Field: outcome | Entry: CC(=O)Nc1ccccc1C=C1c2ccccc2-c2ccccc21
no (0)

# fetch the recorded call for Nc1nc(Cl)c2ncn(Cc3cccc(CCl)c3)c2n1 here
no (0)

In this assay, the call recorded for C/C(=N\Nc1ccc([N+](=O)[O-])cc1[N+](=O)[O-])c1sc(-n2nc(-c3ccccc3)cc2-c2ccccc2)nc1C was what?
no (0)

Kindly provide the recorded test outcome for the following compound: C1=C(c2ccccc2)C(N2CCOCC2)Oc2ccccc21 (stereo unspecified)
no (0)

Short answer needed: outcome of this test for Cc1ccc(O)cc1.Cc1cccc(O)c1.Cc1ccccc1O ?
no (0)

For C[C@]12CC[C@@H]3c4cc(C=O)c(OCc5ccccc5)cc4CC[C@H]3[C@@H]1CCC2OCc1ccccc1 (stereo partly specified) , which call appears in the assay record?
no (0)

What did the test return for CN(C)CCC(=O)N1C/C(=C\c2ccc(Cl)c(Cl)c2)C(=O)/C(=C/c2ccc(Cl)c(Cl)c2)C1 ?
yes (1)

Assay result, entry COC(=O)c1ccccc1C1=C([N+](=O)[O-])C(c2ccccc2)C(C#N)=C(N)O1 (stereo unspecified) — outcome?
no (0)

Name the outcome recorded for COc1c2c3c4c(c(OC)c(=O)c5c(O)cc(OC)c(c6c(OC)cc(O)c(c1=O)c63)c54)C(C(C)O)C2C(C)=O (stereo unspecified) in the assay.
yes (1)

Give the logged outcome of this assay for the following compound: O=C1NC2=NOC(=O)NC2=NO1
no (0)

Hello, I am checking results. What call was entered for CC(=O)OCC1=C2C(OC(=O)C(C)C)CC3(COC(C)=O)OC3/C=C\C3(C)OC3C2OC1=O (stereo unspecified) ?
no (0)

---

Tested on: Malme-3M
TEST_SUMMARY: NCI tumour cell line growth inhibition, 48 h
The source made the active and inactive calls. Rule as the data show it: active = GI50 up to about 1.1 µM and inactive = higher.
Exercise: state measured GI50 for each of the molecules provided.

Returns the measured GI50 for the input molecule. Input: O=c1c2ccccc2oc2ccccc12.Oc1cccc2cccnc12
1.75 µM (inactive)

Reported GI50, molecule O=C(O)c1ccc(/N=N/c2cc(S(=O)(=O)O)c3cccnc3c2O)cc1 : ____
> 100 µM (inactive)

If you can, please state the reported GI50 value of Cc1ccc(-c2cc(-c3ccccc3)nc(N)n2)c(O)c1 .
> 100 µM (inactive)

Any idea what GI50 was measured for CNC(=O)OC(C)CN1c2ccccc2Sc2ccccc21 (stereo unspecified) ?
> 100 µM (inactive)

Which GI50 is listed for CCCCNC(=O)C1C(=O)N(CCCC)C(=O)/C1=N\N (stereo unspecified) ?
> 100 µM (inactive)

Returns the measured GI50 for the input molecule. Input: CC(=O)OC1c2ccccc2CC2(OC(C)=O)c3ccccc3C12 (stereo unspecified)
> 100 µM (inactive)

So what does the record say about GI50 for CC1(C)COC(c2ccccc2-c2ccccc2)=N1 ?
> 100 µM (inactive)

Could you tell me which GI50 is on file for c1ccc(P(CCP(c2ccccn2)c2ccccn2)c2ccccc2)cc1 ?
25.2 µM (inactive)

For the molecule NC(CCC(=O)O)C(=O)N1CCN(c2nc(N3CCCC3)c3nc(Cl)c(NCc4ccccc4)nc3n2)CC1 (stereo unspecified) , what GI50 is on record?
17.3 µM (inactive)

I'd like to know its GI50. The molecule in question is COc1ccc(C2C(Cl)C(=O)N2NC(=O)c2ccc(N)cc2)cc1OC (stereo unspecified)
12.5 µM (inactive)

Look at this molecule and give its reported GI50. CCN(CC)CCCC(C)NC(=O)c1ccc2c(c1)C(=O)c1ccccc1C2=O (stereo unspecified)
12.9 µM (inactive)
